Target: 3',5'-cyclic-AMP phosphodiesterase 4B (Homo sapiens, UniProt Q07343)
Sequence (Q07343 whole entry): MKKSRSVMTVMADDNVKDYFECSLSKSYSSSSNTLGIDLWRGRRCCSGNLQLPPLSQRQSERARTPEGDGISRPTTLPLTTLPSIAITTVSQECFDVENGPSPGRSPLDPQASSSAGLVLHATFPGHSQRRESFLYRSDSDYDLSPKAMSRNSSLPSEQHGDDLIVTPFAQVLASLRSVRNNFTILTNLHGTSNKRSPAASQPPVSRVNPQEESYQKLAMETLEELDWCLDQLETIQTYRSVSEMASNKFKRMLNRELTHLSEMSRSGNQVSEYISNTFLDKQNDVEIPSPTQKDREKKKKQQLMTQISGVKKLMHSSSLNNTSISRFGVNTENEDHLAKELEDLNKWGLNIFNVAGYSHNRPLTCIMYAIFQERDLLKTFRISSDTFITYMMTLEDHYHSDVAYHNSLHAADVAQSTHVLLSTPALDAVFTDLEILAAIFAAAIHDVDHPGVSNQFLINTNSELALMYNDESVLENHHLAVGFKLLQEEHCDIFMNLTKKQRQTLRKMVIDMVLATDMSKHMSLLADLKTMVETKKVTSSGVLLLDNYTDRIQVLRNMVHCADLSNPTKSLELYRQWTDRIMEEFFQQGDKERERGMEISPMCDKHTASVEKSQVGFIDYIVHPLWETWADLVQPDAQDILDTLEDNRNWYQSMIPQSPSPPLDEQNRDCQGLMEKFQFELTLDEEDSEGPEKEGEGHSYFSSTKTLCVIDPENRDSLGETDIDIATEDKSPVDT
Measured parameter: IC50 (nM)

1. COc1ccc(-c2nc3c(c(Nc4cc(Cl)c(CC(=O)O)cc4Cl)n2)S(=O)(=O)CCC3)cc1F; 49
2. CN(C)c1ccc(-c2nc3c(c(Nc4ccc(CC(=O)O)cc4)n2)S(=O)(=O)CCC3)cn1; 56
3. COc1ccc(-c2nc3c(c(Nc4cc(F)c(CC(=O)O)cc4F)n2)S(=O)(=O)CCC3)cc1F; 16
4. COc1ccc(-c2nc3c(c(Nc4ccc(CC(=O)O)cc4)n2)SCCC3)cc1Cl; 71
5. O=C(O)Cc1ccc(Nc2nc(-c3ccccc3F)nc3c2SCCC3)cc1; 880
6. N#Cc1ccc(-c2nc3c(c(Nc4ccc(CC(=O)O)cc4)n2)SCCC3)cc1; 30

* * *

Assay: 1-octanol-phosphate buffered saline distribution coefficient, log D of the compound at 200 uM at pH 7.4 after 30 mins by shake flask method
Type: physicochemical
Measured parameter: logD at 0.5 h, 200 µM

1. COc1ccc(-c2nc3c(c(Nc4ccc(CC(=O)O)c(F)c4)n2)S(=O)(=O)CCC3)cc1F; 0.8

* * *

Assay: Permeability of the compound at 50 uM at pH 7.4 after 4 hrs by PAMPA
Type: ADME
Conditions: read-out: permeability
Measured parameter: Papp at 4 h, 50 µM (×10⁻⁶ cm/s)

1. COc1ccc(-c2nc3c(c(Nc4ccc(CC(=O)O)c(F)c4)n2)S(=O)(=O)CCC3)cc1F; 14.3

* * *

Biological target: 3',5'-cyclic-AMP phosphodiesterase 4D (Homo sapiens)
Sequence (Q08499 whole entry): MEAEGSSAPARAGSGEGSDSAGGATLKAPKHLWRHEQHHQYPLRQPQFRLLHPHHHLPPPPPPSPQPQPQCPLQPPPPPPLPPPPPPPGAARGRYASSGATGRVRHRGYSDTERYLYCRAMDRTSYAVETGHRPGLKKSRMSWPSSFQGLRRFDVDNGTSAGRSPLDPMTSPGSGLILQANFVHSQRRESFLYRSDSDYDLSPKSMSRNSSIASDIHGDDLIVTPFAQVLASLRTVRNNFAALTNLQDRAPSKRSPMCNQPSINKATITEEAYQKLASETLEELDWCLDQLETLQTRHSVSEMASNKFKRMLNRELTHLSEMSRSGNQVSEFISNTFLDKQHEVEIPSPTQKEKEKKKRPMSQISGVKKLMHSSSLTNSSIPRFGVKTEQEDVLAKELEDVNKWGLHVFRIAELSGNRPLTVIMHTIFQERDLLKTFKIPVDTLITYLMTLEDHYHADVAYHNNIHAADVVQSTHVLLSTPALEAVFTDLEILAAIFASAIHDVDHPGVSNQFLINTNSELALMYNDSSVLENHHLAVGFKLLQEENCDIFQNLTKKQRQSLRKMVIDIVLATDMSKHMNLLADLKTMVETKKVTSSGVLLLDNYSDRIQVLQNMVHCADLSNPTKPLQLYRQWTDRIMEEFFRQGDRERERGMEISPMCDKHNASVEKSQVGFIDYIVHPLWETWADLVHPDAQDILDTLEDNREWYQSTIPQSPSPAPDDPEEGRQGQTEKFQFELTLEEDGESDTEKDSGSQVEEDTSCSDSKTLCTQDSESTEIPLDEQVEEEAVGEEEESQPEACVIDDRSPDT
Assay: Inhibition of recombinant human PDE4D (78 to 508)
Measured parameter: IC50 (nM)

1. CCCCNC(=O)Cc1ccc(Nc2nc(-c3ccccc3)nc3c2S(=O)(=O)CCC3)cc1; 260
2. O=C(O)Cc1ccc(Nc2nc(-c3ccccc3)nc3c2SCCC3)cc1; 1300
3. O=C(O)Cc1ccc(Nc2nc(-c3ccccc3)nc3c2S(=O)(=O)CCC3)cc1; 2800

* * *

Molecular target: 3',5'-cyclic-AMP phosphodiesterase 4B (Homo sapiens)
Assay: Inhibition of full-length human PDE4B2 assessed as cAMP hydrolysis preincubated for 20 mins followed by cAMP addition measured after 30 mins
pIC50: −log10 of the molar value.
pIC50: recorded values
Measured parameter: pIC50

1. O=C(O)Cc1ccc(Nc2nc(-c3ccc4ccccc4c3)nc3c2S(=O)(=O)CCC3)cc1F; 8.23
2. COc1ccc(-c2nc3c(c(Nc4ccc(CC(=O)O)c(F)c4)n2)S(=O)(=O)CCC3)c(F)c1F; 8.09
3. COc1ccc(-c2nc3c(c(Nc4cc(F)c(CC(=O)O)c(F)c4)n2)S(=O)(=O)CCC3)cc1F; 8.28
4. O=C(O)Cc1ccc(Nc2nc(-c3ccc4ccccc4c3)nc3c2S(=O)(=O)CCC3)cc1; 7.72
5. COc1ccc(-c2nc3c(c(Nc4ccc(CC(=O)O)cc4)n2)SCCC3)cc1; 7.96
6. O=C(O)Cc1ccc(Nc2nc(-c3cccc(F)c3)nc3c2SCCC3)cc1; 7.24
7. COc1ccc(-c2nc3c(c(Nc4cc(F)c(CC(=O)O)cc4Cl)n2)S(=O)(=O)CCC3)cc1F; 8.00
8. CC(=O)c1ccc(-c2nc3c(c(Nc4ccc(CC(=O)O)cc4)n2)S(=O)(=O)CCC3)cc1; 8.00
9. O=C(O)Cc1ccc(Nc2nc(-c3cc4ccccc4o3)nc3c2S(=O)(=O)CCC3)cc1; 7.70
